- target of assay: T1, 4H3378-AA
- T1 chain: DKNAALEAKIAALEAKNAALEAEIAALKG
- assay method text: two-hybrid library CCmax;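 further: natural log of median RNA to DNA barcode read ratio; higher means stronger binding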
- experimental parameters: mean of both orientations
For each record, check the reported interaction score: if it is below -0.9 write YES, else write NO.

* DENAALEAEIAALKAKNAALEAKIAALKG [4H1142-AA] | NO

Q: # strict comparison: is reported interaction score < -0.9? input = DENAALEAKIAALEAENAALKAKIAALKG [4H1310-AA]
A: NO

Q: Please indicate whether the reported interaction score of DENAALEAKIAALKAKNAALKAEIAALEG [4H1401-AA] is strictly below -0.9.
A: NO
